- Target Of Assay: UniProt P35372
- Sequence (P35372 whole entry): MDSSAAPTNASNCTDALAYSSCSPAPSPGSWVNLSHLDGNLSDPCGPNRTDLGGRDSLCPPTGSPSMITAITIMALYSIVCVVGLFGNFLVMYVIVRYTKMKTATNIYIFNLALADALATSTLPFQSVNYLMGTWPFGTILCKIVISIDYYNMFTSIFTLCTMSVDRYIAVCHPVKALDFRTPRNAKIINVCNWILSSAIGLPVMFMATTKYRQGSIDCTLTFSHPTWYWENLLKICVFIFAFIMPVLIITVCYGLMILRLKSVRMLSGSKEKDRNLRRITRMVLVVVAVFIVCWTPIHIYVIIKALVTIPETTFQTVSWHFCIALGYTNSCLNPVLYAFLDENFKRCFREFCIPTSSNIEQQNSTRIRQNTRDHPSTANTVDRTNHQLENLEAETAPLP
- Assay Remarks: Cellular functional assay, μ (MOP) (h) antagonist effect (cAMP, HTRF)
- Type: cell-based
- Condition Details: unit inferred; highest concentration tested; human recombinant (CHO cells), DAMGO (20 nM)
Quantity Measured: IC50

## Task # return IC50 for Fc1ccc2c(CCCN3CC[C@H]4[C@@H](C3)c3cccc5c3N4CCN5)n[nH]c2c1 , test system: UniProt P35372
## Result > 10 µM
